AC50 listing for selected compounds.
target: 5-hydroxytryptamine receptor 1A (Homo sapiens); also: assay procedure not described here
Sequence (P08908 whole entry): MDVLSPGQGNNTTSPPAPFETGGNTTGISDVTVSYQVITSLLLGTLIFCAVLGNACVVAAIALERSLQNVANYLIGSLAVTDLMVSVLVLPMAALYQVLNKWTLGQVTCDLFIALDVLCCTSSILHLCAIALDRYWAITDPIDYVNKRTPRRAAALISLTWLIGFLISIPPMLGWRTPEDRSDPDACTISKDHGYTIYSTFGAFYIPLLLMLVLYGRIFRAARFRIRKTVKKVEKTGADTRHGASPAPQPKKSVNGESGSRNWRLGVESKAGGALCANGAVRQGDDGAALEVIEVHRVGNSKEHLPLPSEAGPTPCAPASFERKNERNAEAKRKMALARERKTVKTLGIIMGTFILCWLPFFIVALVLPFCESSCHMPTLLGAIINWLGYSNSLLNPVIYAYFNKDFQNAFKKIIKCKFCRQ
Type: functional, cell-based

Example compounds with recorded AC50:
>>> result("CC(C)(C)NCC(O)COc1cccc2c1CCC(=O)N2 (stereo not given)")
"8.8 µM"
>>> result("CC[C@H]1OC(=O)[C@H](C)[C@@H](O[C@H]2C[C@@](C)(OC)[C@@H](O)[C@H](C)O2)[C@H](C)[C@@H](O[C@@H]2O[C@H](C)C[C@H](N(C)C)[C@H]2O)[C@](C)(O)C[C@@H](C)CN(C)[C@H](C)[C@@H](O)[C@]1(C)O")
"> 10 µM"
>>> result("NS(=O)(=O)Cc1noc2ccccc12 [ZONISAMIDE]")
"> 10 µM"
>>> result("Clc1ccc(CCCOCCCN2CCCCC2)cc1")
"> 30 µM"
>>> result("NC(=O)OCC(COC(N)=O)c1ccccc1 [FELBAMATE]")
"> 10 µM"

Recorded AC50 for "CCCc1nc(C(C)(C)O)c(C(=O)OCc2oc(=O)oc2C)n1Cc1ccc(-c2ccccc2-c2nnn[nH]2)cc1" , please?
> 10 µM

Recorded AC50 for "O=C(O[C@H]1C[C@H]2CC[C@@H](C1)[N+]21CCCC1)C(O)(c1ccccc1)c1ccccc1" , please?
> 30 µM

Recorded AC50 for "COc1cc2c(N)nc(N3CCN(C(=O)OCC(C)(C)O)CC3)nc2c(OC)c1OC" , please?
22 µM

Recorded AC50 for "C=CCC1(CC(C)C)C(=O)NC(=O)NC1=O" , please?
> 10 µM

Recorded AC50 for O=P1(NCCCl)OCCCN1CCCl (stereo not given) [IFOSFAMIDE] , please?
> 30 µM
